biological target: Tyrosine-protein kinase JAK1 (Homo sapiens)
Sequence (P23458 whole entry): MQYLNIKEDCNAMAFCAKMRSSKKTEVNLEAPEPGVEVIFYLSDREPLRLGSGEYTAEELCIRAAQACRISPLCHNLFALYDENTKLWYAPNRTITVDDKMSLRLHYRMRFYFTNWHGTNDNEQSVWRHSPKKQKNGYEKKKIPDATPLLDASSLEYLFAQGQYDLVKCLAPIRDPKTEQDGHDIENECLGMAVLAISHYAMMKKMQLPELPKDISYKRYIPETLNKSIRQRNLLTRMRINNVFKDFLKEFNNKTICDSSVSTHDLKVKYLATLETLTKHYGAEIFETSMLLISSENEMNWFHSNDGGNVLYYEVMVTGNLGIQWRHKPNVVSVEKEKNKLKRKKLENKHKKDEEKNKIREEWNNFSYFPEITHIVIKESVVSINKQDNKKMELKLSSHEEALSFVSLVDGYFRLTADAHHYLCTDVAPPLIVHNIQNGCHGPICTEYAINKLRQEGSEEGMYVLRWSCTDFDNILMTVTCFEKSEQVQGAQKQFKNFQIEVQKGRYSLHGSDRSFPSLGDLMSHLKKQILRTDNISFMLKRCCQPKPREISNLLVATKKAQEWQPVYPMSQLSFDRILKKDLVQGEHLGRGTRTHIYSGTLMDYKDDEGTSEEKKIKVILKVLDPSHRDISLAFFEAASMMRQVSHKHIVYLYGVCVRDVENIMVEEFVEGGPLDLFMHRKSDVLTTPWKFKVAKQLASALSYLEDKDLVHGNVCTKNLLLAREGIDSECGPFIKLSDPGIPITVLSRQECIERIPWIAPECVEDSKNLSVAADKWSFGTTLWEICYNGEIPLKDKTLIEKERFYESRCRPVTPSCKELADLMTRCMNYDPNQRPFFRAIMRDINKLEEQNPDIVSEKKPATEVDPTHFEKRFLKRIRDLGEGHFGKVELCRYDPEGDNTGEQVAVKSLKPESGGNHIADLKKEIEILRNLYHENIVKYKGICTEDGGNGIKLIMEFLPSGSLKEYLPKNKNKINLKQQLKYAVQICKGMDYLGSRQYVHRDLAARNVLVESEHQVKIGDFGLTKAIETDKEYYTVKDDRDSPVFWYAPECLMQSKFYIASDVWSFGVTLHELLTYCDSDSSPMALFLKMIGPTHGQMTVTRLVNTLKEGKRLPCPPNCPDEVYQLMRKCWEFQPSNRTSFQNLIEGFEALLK
propertyLabel: IC50
Express the reported value numerically, then name its unit.

In: Which IC50 reading was recorded for the molecule `CS(=O)(=O)C1CCN(Cc2ccc(-c3cccc4nc(NC(=O)C5CC5)cn34)c(F)c2)CC1` ?
Out: 262 nM

* * *

So I've got pIC50 readings for Tyrosine-protein kinase JAK2 (Homo sapiens, UniProt O60674), take a look.
Hey, just a heads up that pIC50 is the negative log base 10 of the concentration in molar.

Some solved cases for reference:
[
  {
    "smiles": "CS(=O)(=O)C1CCN(Cc2ccc(-c3cccc4nc(NC(=O)C5CC5)cn34)c(F)c2)CC1",
    "testedOn": "Tyrosine-protein kinase JAK2 (Homo sapiens, UniProt O60674)",
    "propertyLabel": "pIC50",
    "reportedMeasurement": 6.75
  },
  {
    "smiles": "O=C(Nc1cn2c(-c3ccc(OC4CCS(=O)(=O)CC4)cc3)cccc2n1)C1CC1",
    "testedOn": "Tyrosine-protein kinase JAK2 (Homo sapiens, UniProt O60674)",
    "propertyLabel": "pIC50",
    "reportedMeasurement": 7.14
  },
  {
    "smiles": "CS(=O)(=O)C1CN(Cc2ccc(-c3cccc4nc(NC(=O)C5CC5)cn34)cc2)C1",
    "testedOn": "Tyrosine-protein kinase JAK2 (Homo sapiens, UniProt O60674)",
    "propertyLabel": "pIC50",
    "reportedMeasurement": 6.63
  }
]

In: Looking for the measured pIC50 of `CCCS(=O)(=O)C1CCN(Cc2ccc(-c3cccc4nc(NC(=O)C5CC5)cn34)cc2)CC1` , can you help?
Out: 6.64
